# Tested on: HT29 intrarenal xenograft, nude mice, tumor weight change
# methodSummary: NCI In Vivo Anticancer Drug Screen. Data for tumor model HT29;CX-1 Human Adenocarcinoma (MER+) (intrarenal inoculation) in NU/NU BALB/C (nude) mice
# testContext: endpoint: mean tumor weight change; dose: 600.0 mg/kg/injection; schedule: Q04DX004 (ip); vehicle: saline; higher = larger tumour
Records with an inconclusive call do not appear.
parameter: T/C

Past entries and their recorded results:
Nc1nc(=O)n(C2OC(CO)C(O)C2O)cc1F (centres undefined) : 64 % of control
OCC(O)C(O)C(O)C(O)CO (centres undefined) : 90 % of control
CCOC(=O)C(N)CSC(=O)NC (centres undefined) : 111 % of control

Shifting focus to the compound that follows.
[in] // returns reported T/C for input O=CC(O)C(O)C(O)C(O)CO (centres undefined)
[out] 164 % of control

Data provenance is PubChem BioAssay AID208.
